target of assay: GST-CBP(1081-1197) bromodomain (Homo sapiens (Human))
Sequence (Q92793 1081-1197): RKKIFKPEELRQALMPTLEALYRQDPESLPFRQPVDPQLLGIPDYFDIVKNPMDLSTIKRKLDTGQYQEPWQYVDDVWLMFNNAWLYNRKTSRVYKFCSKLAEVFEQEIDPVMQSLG
test description: CBP AlphaScreen Assay
cond: binding to biotin-H4(1-21) Ac-K5/8/12/16
pIC50: −log10 of the molar value.
Outcome: met for pIC50 of at least 8; not met for anything lower.

| compound | target of assay | assigned category |
| --- | --- | --- |
| Cc1cn(-c2nc3cccc(-c4nc(C5CC5)n5c4CN(C)C(=O)C5C)c3cc2C(F)F)nn1 (stereo not shown) | GST-CBP(1081-1197) bromodomain (Homo sapiens (Human)) | met |
| CC1C(=O)N(C)Cc2c(-c3c(F)ccc4cc(C5CCOCC5)ncc34)nc(C3CCOCC3)n21 (single isomer, unassigned) [Example 34a] | GST-CBP(1081-1197) bromodomain (Homo sapiens (Human)) | not met |
| CN1Cc2c(N3CCCc4nc(-c5cnn(C)c5)c(C(F)(F)F)cc43)nc(C3CC3)n2CC1=O | GST-CBP(1081-1197) bromodomain (Homo sapiens (Human)) | not met |
| C[C@H]1C(=O)N(C)Cc2c(-c3cccc4nc(-c5cnn(C)c5)c(C(F)F)cc34)nc(C3CCOCC3)n21 | GST-CBP(1081-1197) bromodomain (Homo sapiens (Human)) | not met |
| CNC(=O)N1CCC(c2nc(-c3cccc4nc(-c5cnn(C)c5)c(C(F)F)cc34)c3n2C(C)C(=O)N(C)C3)CC1 (stereo not shown) | GST-CBP(1081-1197) bromodomain (Homo sapiens (Human)) | not met |
| CC1C(=O)N(C)Cc2c(-c3cccc4nc(-c5noc(=O)[nH]5)c(C(F)F)cc34)nc(C3CC3)n21 (single isomer, unassigned) [Example 45b] | GST-CBP(1081-1197) bromodomain (Homo sapiens (Human)) | not met |
| CC1C(=O)N(C)Cc2c(N3CCCc4cc(-c5cnn(C)c5)c(C(F)F)cc43)nc(C3CC3)n21 (stereo not shown) | GST-CBP(1081-1197) bromodomain (Homo sapiens (Human)) | met |

###

target of assay: GST-CBP(1081-1197) bromodomain (Homo sapiens (Human))
test description: CBP AlphaScreen Assay
cond: binding to biotin-H4(1-21) Ac-K5/8/12/16
pIC50: −log10 of the molar value.
Reported pIC50 values are given for each entry in this list.

| compound | target of assay | pIC50 |
| --- | --- | --- |
| CC1C(=O)N(C)Cc2c(-c3cc4c(-c5cnn(C)c5)nn(C)c4cc3F)nc(C3CCOCC3)n21 (stereo not shown) [Example 43, 2,2,2-trifluoroacetate] | GST-CBP(1081-1197) bromodomain (Homo sapiens (Human)) | 8.22 |
| CC1C(=O)N(C)Cc2c(-c3cccc4nc(-c5cnn(C)c5)c(C(F)F)cc34)nc(C3(C)CCOCC3)n21 (single isomer, unassigned) [Example 32b] | GST-CBP(1081-1197) bromodomain (Homo sapiens (Human)) | 8.70 |
| CCC1C(=O)N(C)Cc2c(-c3cccc4nc(-c5cnn(C)c5)c(C(F)F)cc34)nc(C3CCOCC3)n21 (single isomer, unassigned) [Example 64a] | GST-CBP(1081-1197) bromodomain (Homo sapiens (Human)) | 5.61 |
| CC1C(=O)N(C)Cc2c(-c3cccc4cc(N5CCOCC5)ncc34)nc(C3CCOCC3)n21 (single isomer, unassigned) [Example 16b] | GST-CBP(1081-1197) bromodomain (Homo sapiens (Human)) | 8.52 |
| CC1C(=O)N(C)Cc2c(-c3cccc4nc(-c5cnn(C)c5)c(C#N)cc34)nc(C3CCOCC3)n21 (single isomer, unassigned) [Example 8b] | GST-CBP(1081-1197) bromodomain (Homo sapiens (Human)) | 8.70 |
| CC(=O)N1CCC(c2nc(-c3cccc4nc(-c5cnn(C)c5)c(C(F)F)cc34)c3n2C(C)C(=O)N(C)C3)CC1 (stereo not shown) [Example 80] | GST-CBP(1081-1197) bromodomain (Homo sapiens (Human)) | 7.35 |
| C[C@H]1C(=O)N(C)Cc2c(-c3cccc4cc(-c5cnn(C)c5)ncc34)nc(C3CC3)n21 [Example 111a] | GST-CBP(1081-1197) bromodomain (Homo sapiens (Human)) | 6.29 |
| Cc1ncc(-c2cc3ccc(C)c(-c4nc(C5CCOCC5)n5c4CN(C)C(=O)C5C)c3cn2)s1 (single isomer, unassigned) [Example 38a] | GST-CBP(1081-1197) bromodomain (Homo sapiens (Human)) | 8.10 |
| CC1C(=O)N(C)Cc2c(-c3cccc4cc(C5=CCOCC5)ncc34)nc(C3CC3)n21 (stereo not shown) [Example 55] | GST-CBP(1081-1197) bromodomain (Homo sapiens (Human)) | 8.70 |
| Cc1ncc(-c2nc3cccc(-c4nc(C5CC5)n5c4CN(C)C(=O)C5C)c3cc2C(F)F)s1 (stereo not shown) [Example 68] | GST-CBP(1081-1197) bromodomain (Homo sapiens (Human)) | 8.30 |
| Cc1nn(C)cc1-c1nc2cccc(-c3nc(C4CC4)n4c3CN(C)C(=O)C4C)c2cc1C(F)F (stereo not shown) [Example 65] | GST-CBP(1081-1197) bromodomain (Homo sapiens (Human)) | 7.77 |
| CC1C(=O)N(C)Cc2c(-c3cccc4nc(-c5ncco5)c(C(F)F)cc34)nc(C3CC3)n21 (stereo not shown) [Example 74] | GST-CBP(1081-1197) bromodomain (Homo sapiens (Human)) | 8.40 |
| CNC(=O)N1CC(c2nc(-c3cccc4nc(-c5cnn(C)c5)c(C(F)F)cc34)c3n2C(C)C(=O)N(C)C3)C1 (stereo not shown) [Example 24] | GST-CBP(1081-1197) bromodomain (Homo sapiens (Human)) | 7.09 |
| CC1C(=O)N(C)Cc2c(-c3cccc4nc(-c5cnn(C)c5)c(C#N)cc34)nc(C3CCOCC3)n21 (single isomer, unassigned) [Example 8a] | GST-CBP(1081-1197) bromodomain (Homo sapiens (Human)) | 6.29 |
| Cc1nn(C)cc1-c1cc2ccc(F)c(-c3nc(C4CCOCC4)n4c3CN(C)C(=O)C4)c2cn1 [Example 97] | GST-CBP(1081-1197) bromodomain (Homo sapiens (Human)) | 6.49 |
| C[C@@H]1CN(C)C(=O)c2c(-c3cccc4nc(-c5cnn(C)c5)c(C(F)F)cc34)nc(C3CCOCC3)n21 [Example 5a] | GST-CBP(1081-1197) bromodomain (Homo sapiens (Human)) | 8.40 |
| CC1C(=O)N(C)Cc2c(-c3ccc4cncn4c3)nc(C3CC3)n21 (stereo not shown) [Example 54] | GST-CBP(1081-1197) bromodomain (Homo sapiens (Human)) | 6.12 |
| CC1C(=O)N(C)Cc2c(-c3cccc4nc(-c5cnn(C)c5)c(C(F)F)cc34)nc(C3CN(CCF)C3)n21 (stereo not shown) [Example 25] | GST-CBP(1081-1197) bromodomain (Homo sapiens (Human)) | 7.59 |
| CC1C(=O)N(C)Cc2c(-c3cccc4nc(C5CCOCC5)c(C(F)F)cc34)nc(C3CC3)n21 (stereo not shown) [Example 10] | GST-CBP(1081-1197) bromodomain (Homo sapiens (Human)) | 8.70 |
| CC1C(=O)N(C)Cc2c(-c3cccc4nc(-c5cn(C)cn5)c(C(F)F)cc34)nc(C3CC3)n21 (stereo not shown) [Example 69] | GST-CBP(1081-1197) bromodomain (Homo sapiens (Human)) | 7.89 |
| CC1C(=O)N(C)Cc2c(-c3ccc4c(cnn4C)c3)nc(C3CC3)n21 (stereo not shown) [Example 50] | GST-CBP(1081-1197) bromodomain (Homo sapiens (Human)) | 6.81 |
| Cc1ncc(-c2cc3ccc(F)c(-c4nc(C5CCOCC5)n5c4CN(C)C(=O)C5C)c3cn2)s1 (single isomer, unassigned) [Example 37a] | GST-CBP(1081-1197) bromodomain (Homo sapiens (Human)) | 9.00 |
| CC1C(=O)N(C)Cc2c(-c3cccc4nc(-c5cnn(C)c5)c(C#N)cc34)nc(C3CC3)n21 (single isomer, unassigned) [Example 56a] | GST-CBP(1081-1197) bromodomain (Homo sapiens (Human)) | 6.37 |
| CC1C(=O)N(C)Cc2c(-c3cccc4nc(-c5cnn(C)c5)c(C(F)F)cc34)nc(C3(C)CCOCC3)n21 (single isomer, unassigned) [Example 32a] | GST-CBP(1081-1197) bromodomain (Homo sapiens (Human)) | 6.31 |
| Cc1c(-c2nc3cccc(-c4nc(C5CC5)n5c4CN(C)C(=O)C5C)c3cc2C(F)F)cnn1C (stereo not shown) [Example 61] | GST-CBP(1081-1197) bromodomain (Homo sapiens (Human)) | 8.40 |
| CC1C(=O)N(C)Cc2c(-c3ccc4c(c3)c(-c3cnn(C)c3)nn4C)nc(C3CCOCC3)n21 (stereo not shown) [Example 40] | GST-CBP(1081-1197) bromodomain (Homo sapiens (Human)) | 8.05 |
| CC1C(=O)N(C)Cc2c(-c3ccn4cncc4c3)nc(C3CC3)n21 (stereo not shown) [Example 57] | GST-CBP(1081-1197) bromodomain (Homo sapiens (Human)) | 5.97 |
| Cc1cn(-c2cc3cccc(-c4nc(C5CCOCC5)n5c4CN(C)C(=O)C5C)c3cn2)cn1 (single isomer, unassigned) [Example 30b] | GST-CBP(1081-1197) bromodomain (Homo sapiens (Human)) | 6.43 |

Origin of values: patent US10899769B2
